Where do the numbers come from? From patent US20260306491A1.

- PROTOCOL: Solubility screening of malonate salt of Compound I in various solvents at RT
- Type: physicochemical
- SETTINGS: organic solvent or mixture; n-Heptane, RT
- Description: The solubility of the malonate salt of Compound I as prepared according to Example 2 in various solvents at RT was measured. The malonate salt of Compound I (approximately 2 mg) was added to a 3-mL glass vial. The solvent was then added stepwise (50/50/200/200/500/1000 μL) into the vial until the solids were dissolved visually or a total volume of 2 mL was reached.
Where a name gives a salt, the structure may show the parent alone.
METRIC: solubility

Given the entry C=CC(=O)Nc1cc(Nc2cc(N3OCC[C@@H]3c3cc(F)cc(F)c3)ncn2)c(OC)cc1N1CCC(N2CCN(C3CC3)CC2)CC1 [malonate salt of Compound I] , report its measured solubility.
< 1100 µg/mL
